Reference source for all entries: patent US12509460B2

Quick list: Papp A→B at 120 min, 5 μM per entry.
# System: MDR1 (P-gp)
# assayProcedure: Blood-brain-barrier (BBB) penetration potential via MDCK-MDR1 permeability assay
# conditionSet: dog, MDCK-MDR1, pH 7.4, MDCK-MDR1: Papp A-B, A-B direction
Reply numerically in nm/s, unit not repeated.

// solved cases for Papp A→B at 120 min, 5 μM follow
compound: CN(c1ccc(-c2ccc(-n3cnc(Cl)c3)cc2O)nn1)[C@H]1C[C@@H]2CC(F)(F)[C@H](C1)N2 [Compound 37B]
targetOfAssay: MDR1 (P-gp)
propertyLabel: Papp A→B at 120 min, 5 μM
readoutNumber: 190

compound: CN(c1ccc(-c2ccc(-c3cnn(C)c3)cc2O)nn1)[C@H]1C[C@@H]2CCC[C@@H](N2)[C@H]1F [Compound 15B]
targetOfAssay: MDR1 (P-gp)
propertyLabel: Papp A→B at 120 min, 5 μM
readoutNumber: 32.1

compound: O=C(c1cc2cc(O)c(-c3ccc(N(C4CC4)[C@H]4C[C@@H]5CC[C@@H](N5)[C@H]4F)nn3)cc2o1)N1CCC1 [Compound 57B]
targetOfAssay: MDR1 (P-gp)
propertyLabel: Papp A→B at 120 min, 5 μM
readoutNumber: 6.9

compound: CN(c1ccc(-c2ccc(-c3cnn(C)c3)cc2O)nn1)[C@@H]1C[C@H]2CCC[C@H](N2)[C@H]1F [Compound 14A]
targetOfAssay: MDR1 (P-gp)
propertyLabel: Papp A→B at 120 min, 5 μM
readoutNumber: 30

compound: COc1cnc(-c2ccc(-c3ccc(N(C)[C@@H]4C[C@H]5CCC[C@H](N5)[C@@H]4F)nn3)c(O)c2)cn1 [Compound 29A]
targetOfAssay: MDR1 (P-gp)
propertyLabel: Papp A→B at 120 min, 5 μM
readoutNumber: 18.5

compound: CN(c1ccc(-c2cc3ncn(CC(F)(F)F)c(=O)c3cc2O)nn1)[C@H]1C[C@@H]2CC[C@@H](N2)[C@H]1F [Compound 81B]
targetOfAssay: MDR1 (P-gp)
propertyLabel: Papp A→B at 120 min, 5 μM
readoutNumber: 4

compound: CN(c1ccc(-c2cc3cccnc3cc2O)nn1)[C@H]1C[C@@H]2CC[C@@H](N2)[C@H]1F [Compound 74B]
targetOfAssay: MDR1 (P-gp)
propertyLabel: Papp A→B at 120 min, 5 μM
readoutNumber: 30

compound: COc1cn(-c2ccc(-c3ccc(N(C)[C@@H]4C[C@H]5CC(F)(F)[C@@H](C4)N5)nn3)c(O)c2)cn1 [Compound 19A]
targetOfAssay: MDR1 (P-gp)
propertyLabel: Papp A→B at 120 min, 5 μM
readoutNumber: 101

compound: CN(c1ccc(-c2ccc(-c3cnccn3)cc2O)nn1)[C@H]1C[C@@H]2CCC[C@@H](N2)[C@H]1F [Compound 24B]
targetOfAssay: MDR1 (P-gp)
propertyLabel: Papp A→B at 120 min, 5 μM
readoutNumber: 59.9

compound: CN(c1ccc(-c2ccc(C#N)cc2O)nn1)[C@H]1C[C@@H]2CCC[C@@H](N2)[C@H]1F [Compound 39B]
targetOfAssay: MDR1 (P-gp)
propertyLabel: Papp A→B at 120 min, 5 μM
readoutNumber: 45.7

[in] Query (compound): Cc1ccc(-c2ccc(-c3ccc(N(C)[C@H]4C[C@@H]5CC[C@@H](N5)[C@H]4F)nn3)c(O)c2)nn1 (single isomer, unassigned) [Compound 25B] ; field requested: Papp A→B at 120 min, 5 μM
[out] 16.1

[in] Thanks! And CN(c1ccc(-c2cc3ncccc3cc2O)nn1)[C@H]1C[C@@H]2CCC[C@@H](N2)[C@H]1F [Compound 78B] ?
[out] 40.3

[in] What do we get for CN(c1ccc(-c2ccc(-n3ccnc3)cc2O)nn1)[C@@H]1C[C@H]2CCC[C@H](N2)[C@@H]1F [Compound 11A] ?
[out] 27.6

[in] Field entry: CNC(=O)c1ccc(-c2ccc(N(C)[C@H]3C[C@@H]4CC[C@@H](N4)[C@H]3F)nn2)c(O)c1 (single isomer, unassigned) [Compound 77B]
[out] 2.8

[in] Next entry: CN(c1ccc(-c2cc3ccncc3s2)nn1)[C@@H]1C[C@H]2CC[C@H](N2)[C@@H]1F [Compound 65A]
[out] 58.2

[in] Entry to check: CN(c1ccc(-c2ccc(-n3ccnc3)cc2O)nn1)[C@@H]1C[C@H]2CC(F)(F)[C@@H](C1)N2 [Compound 13A]
[out] 87

[in] Please give the result for CN(c1ccc(-c2cc3ncn(C)c(=O)c3cc2O)nn1)[C@H]1C[C@@H]2CC[C@@H](N2)[C@H]1F [Compound 51B] too.
[out] 9.1
